Data provenance: ChEMBL document CHEMBL3994603

Please respond with reported IC50 for every item in the list.
target: Mushroom tyrosinase (Agaricus bisporus, UniProt O42713+Q00024+C7FF04+C7FF05)

Prompt line: Reported IC50, compound O=C(/C=C/c1ccc(O)cc1)NCCc1ccc(O)cc1 [N-P-COUMAROYL TYRAMINE] : ____
Response line: > 5 mM

Prompt line: // same read-out, input: COc1cc(O)c2c(=O)c(O)c(-c3ccc(O)c(O)c3)oc2c1O
Response line: > 5 mM

Prompt line: // same read-out, input: COc1cc(O)c2c(=O)c(O)c(-c3cc(O)c(O)c(O)c3)oc2c1OC(C)=O
Response line: > 5 mM

Prompt line: // same read-out, input: COc1cc(/C=C/C(=O)NCCc2ccc(O)c(O)c2)ccc1O [N-TRANS-FERULOYLDOPAMINE]
Response line: > 5 mM

Prompt line: // same read-out, input: COc1cc(O)c2c(=O)c(O[C@@H]3O[C@@H](C)[C@H](O)[C@@H](O)[C@H]3O)c(-c3ccc(O)c(O)c3)oc2c1OC(C)=O
Response line: > 5 mM

Prompt line: // same read-out, input: COc1cc(O)c2c(=O)c(O)c(-c3ccc(O)c(O)c3)oc2c1OC(C)=O
Response line: > 5 mM

Prompt line: // same read-out, input: COc1cc(CO[C@@H]2O[C@H](CO[C@@H]3O[C@@H](C)[C@H](O)[C@@H](O)[C@H]3O)[C@@H](O)[C@H](O)[C@H]2O)cc(OC)c1OC
Response line: > 5 mM

Prompt line: // same read-out, input: COc1cc(O)c2c(=O)c(O)c(-c3cc(O)c(O)c(O)c3)oc2c1O
Response line: > 5 mM
